- test system: T1, rat cMET-Fc (rat, UniProt P97523 25-935)
- T1 construct: Construct named only as rMET-Fc; also called rMET-Fc; not shown: Fc part
- T1 sequence (P97523 25-935 limits assumed): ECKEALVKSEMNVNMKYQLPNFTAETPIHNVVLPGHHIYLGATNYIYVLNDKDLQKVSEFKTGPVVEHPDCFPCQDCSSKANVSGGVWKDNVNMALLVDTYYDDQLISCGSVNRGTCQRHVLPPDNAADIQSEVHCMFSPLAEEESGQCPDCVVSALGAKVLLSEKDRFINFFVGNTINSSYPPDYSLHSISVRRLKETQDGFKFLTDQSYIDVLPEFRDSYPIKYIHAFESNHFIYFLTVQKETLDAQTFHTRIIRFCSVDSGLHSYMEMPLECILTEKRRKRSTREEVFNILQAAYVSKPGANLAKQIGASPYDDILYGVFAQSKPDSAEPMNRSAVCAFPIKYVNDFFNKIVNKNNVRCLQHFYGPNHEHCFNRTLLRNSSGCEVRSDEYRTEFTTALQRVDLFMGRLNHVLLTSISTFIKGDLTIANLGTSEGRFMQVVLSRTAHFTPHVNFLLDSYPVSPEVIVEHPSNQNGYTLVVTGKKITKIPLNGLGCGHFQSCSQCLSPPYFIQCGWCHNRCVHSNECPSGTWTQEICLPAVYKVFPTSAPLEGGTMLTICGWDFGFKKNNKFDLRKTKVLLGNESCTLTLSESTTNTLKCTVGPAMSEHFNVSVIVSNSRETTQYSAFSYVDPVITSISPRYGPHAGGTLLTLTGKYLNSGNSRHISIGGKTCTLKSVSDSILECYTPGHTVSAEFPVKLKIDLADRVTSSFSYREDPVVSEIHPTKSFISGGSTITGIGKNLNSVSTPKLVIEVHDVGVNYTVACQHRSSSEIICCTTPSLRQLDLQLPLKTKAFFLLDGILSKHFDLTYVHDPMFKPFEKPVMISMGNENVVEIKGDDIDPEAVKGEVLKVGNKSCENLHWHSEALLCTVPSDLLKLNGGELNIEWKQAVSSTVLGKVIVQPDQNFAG
- assay method text: SPR, rMET-Fc
Recorded measurements of Kd, one per entry
reported endpoint: Kd (nM)

- G2aka (humanized P3D12, VH-abb/sdr + VL-abb/sdr) (antibody, V domains shown, Humanized and isotype switched version of P3D12) VH: QVQLVQSGAEVKKPGASVKVSCKASGYTFTSYWMHWVKQAPGQGLDWMGYIKPSTDNTEYAQKFQGRVTLTADKSTSTAYMELSSLRSEDTAVYYCARSYGNYPLMDYWGQGTTVTVSS VL: QIVLTQSPATLSLSPGERATLSCRASQSVTSNYLYWYQQKPGSSPRLLIYSTSNLASGVPARFSGSGSGTDYTLTISRLEPEDFASYFCHQWSSYPPTFGSGTKLEIKR: 26
- G2ckc (humanized P3D12, VH-cdr + VL-cdr) (antibody, V domains shown, Humanized and isotype switched version of P3D12) VH: QVQLVQSGAEVKKPGASVKVSCKASGYTFTSYWMHWVKQAPGQGLDWIGYIKPSTDNTEYNQKFKDKATLTADKSTSTAYMELSSLRSEDTAVYYCARSYGNYPLMDYWGQGTTVTVSS VL: QIVLTQSPATLSLSPGERATLSCSASSSVTSNYLYWYQQKPGSSPRLLIYSTSNLASGVPARFSGSGSGTSYTLTISRLEPEDFASYFCHQWSSYPPTFGSGTKLEIKR: 31
- F6B1P3D12 (mouse monoclonal anti-cMET antibody) (antibody, V domains shown, Mouse hybridoma antibody (ATCC PTA-125826); also called Mouse P3D12) VH: QVQLQQSGAELAKPGASVKMSCRASGYTFTSYWMHWVKQRPGQGLDWIGYIKPSTDNTEYNQKFKDKATLTADKSSSTAYMQLSSLTSEDSAVYYCARSYGNYPLMDYWGQGTSVTVSS VL: QIVLTQSPAIMSASPGEKVTLTCSASSSVTSNYLYWYQQKPGSSPKLWIYSTSNLASGVPARFSGSGSGTSYSLTISSMEAEDAASYFCHQWSSYPPTFGSGTKLEIKR: 16
